EXPERIMENTAL SYSTEM: OBT-DM (Arabidopsis thaliana, UniProt Q9SAA9)
Sequence (Q9SAA9 whole entry): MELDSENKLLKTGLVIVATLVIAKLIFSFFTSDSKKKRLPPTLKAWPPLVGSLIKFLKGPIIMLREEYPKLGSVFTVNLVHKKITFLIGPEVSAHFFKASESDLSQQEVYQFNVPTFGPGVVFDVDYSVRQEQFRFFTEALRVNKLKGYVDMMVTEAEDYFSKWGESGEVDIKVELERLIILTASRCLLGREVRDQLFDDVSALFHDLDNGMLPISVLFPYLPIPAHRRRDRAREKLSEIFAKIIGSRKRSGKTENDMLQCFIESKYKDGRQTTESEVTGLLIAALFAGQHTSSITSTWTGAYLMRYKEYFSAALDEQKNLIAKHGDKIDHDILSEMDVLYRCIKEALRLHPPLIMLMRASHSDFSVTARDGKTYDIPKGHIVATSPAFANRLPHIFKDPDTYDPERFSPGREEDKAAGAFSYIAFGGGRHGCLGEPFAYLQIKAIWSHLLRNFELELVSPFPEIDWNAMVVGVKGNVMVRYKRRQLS
METHOD: Equilibrium inhibitory constant for OBT-DM (no method given)
Assay type: binding
pKi: −log10 of the molar value.

- SMILES CODE: "Nc1nc[nH]n1"
  pKi: "< 5.00"

Numbers sourced from patent US20050074829A1.
